Just for reference, the METLIN SMRT retention time set (Domingo-Almenara et al. 2019) is where these values come from.

# procedureDetails: gradient 5% acetonitrile 3 min, to 50% in 2 min, to 85% in 15 min, held 3 min, 100 µL/min
# conditionSet: column: Zorbax Extend-C18 2.1 x 50 mm; eluents: water / acetonitrile, 0.1% formic acid
parameterMeasured: RP-LC retention time (s)

(1) O=C(C1CCCN(c2nnc3ccc(C(F)(F)F)cn23)C1)N1CCCCC1 (stereo not given)
(2) CCCn1c(=O)sc2cc(S(=O)(=O)N3CCC(C(=O)Nc4cc(C)cc(C)c4)CC3)ccc21
Identify the entry with the smaller RP-LC retention time: 1 or 2 . Refer to your chosen item by its label in the answer.
1
(1: 670 s, 2: 1060 s)

(a) O=C(CC1CCCCN1S(=O)(=O)c1ccc(Cl)cc1)NCc1ccco1 (stereo not given)
(b) CCc1nc2nc3c(c(N4CCN(c5ccccn5)CC4)n2n1)CCC3
Of a and b , which one carries the higher reported RP-LC retention time? Refer to your chosen item by its label in the answer.
a
